# ASSAY_SYSTEM: HLA-A*02:01
# METHOD: IEDB peptide-MHC binding, purified MHC/competitive/radioactivity; bounds were set here for any values at or beyond the usual limits of such assays
# CONDITION: source organism: Vaccinia virus WR
OUTCOME_MEASURE: pIC50
Worth noting: pIC50 values are minus log10 of concentrations stated in mol/L.

SEQUENCE_INPUT: MLNRVQILM
pIC50: 7.55
--
SEQUENCE_INPUT: AMFTTMYNI
pIC50: 8.55
--
SEQUENCE_INPUT: ALLSCIRNA
pIC50: 7.64
--
SEQUENCE_INPUT: FVDTMSIYI
pIC50: 8.02
--
SEQUENCE_INPUT: NLPSSENYM
pIC50: 6.87

Proceeding to the next sequence to report its pIC50.
Ask | I have this sequence here, YQYVRLHEM , and I need its recorded pIC50.
Reply | 8.04
